Biological target: GPR139 (Homo sapiens, UniProt Q6DWJ6)
Sequence (Q6DWJ6 whole entry): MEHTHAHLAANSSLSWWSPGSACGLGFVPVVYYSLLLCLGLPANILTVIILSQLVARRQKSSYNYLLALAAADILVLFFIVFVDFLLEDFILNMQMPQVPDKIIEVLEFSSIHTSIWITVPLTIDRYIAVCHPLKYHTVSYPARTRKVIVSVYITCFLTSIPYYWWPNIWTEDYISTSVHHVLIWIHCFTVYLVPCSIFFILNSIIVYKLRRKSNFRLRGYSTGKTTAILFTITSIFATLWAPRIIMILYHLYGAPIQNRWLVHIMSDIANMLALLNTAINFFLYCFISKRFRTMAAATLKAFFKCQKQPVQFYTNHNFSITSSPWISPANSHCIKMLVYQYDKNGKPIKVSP
Test: GPR139 Agonist titration / agonist counterscreen assay (calcium detection, HEK-GPR139 cells)
Assay type: cell-based
Design: expressed in transfected cells; host or cells: HEK Aequorin cells, Maxcyte transient transfection
Conditions: GPR139 Agonist Activity; ligand efficiency
The reader will find reported Efficiency Ligand values listed item by item below.
Reported property: Efficiency Ligand

1. O=C(C1CC(Cc2cccc3ccccc23)=NO1)N1CCC(C(O)Cc2ccccc2)CC1 (stereo not drawn) :: 0.29
2. CCC1Cc2ccc(C)cc2CC1C(=O)Nc1ccc(-c2cn[nH]c2)cc1OCCN(C)C (stereo not drawn) :: 0.31
3. CCn1c(C)nc2cc(C(=O)NNC(=O)Cc3cccc4ccccc34)ccc21 :: 0.35
4. O=C(CN1CCN(Cc2ccccc2Cl)C1=O)NC1CCCCCC1 :: 0.38
5. O=C(CN1CCN(C/C=C/c2ccccc2)CC1)NCCCc1ccccc1 :: 0.36
6. COc1ccc(CCC(=O)Nc2ccc(-c3cn[nH]c3)c(OC)c2)cc1 :: 0.39
7. O=C(NCCc1ccc(Cl)cc1)c1ccc(N2CC3CC(C2)c2cccc(=O)n2C3)c(NS(=O)(=O)c2ccc3c(c2)OCCO3)c1 (stereo not drawn) :: 0.23
8. CC1(c2ccc3ccccc3c2)NC(=O)C(CC(=O)NCc2ccco2)C1=O (stereo not drawn) :: 0.37
9. Cc1cccc(CCNC(=O)c2c[nH]c3cc(-c4cn[nH]c4)ccc23)c1 :: 0.38

====

The reader will find reported pEC50 values listed item by item below.
System: parental HEK cells
Assay: HEK parental Agonist Counterscreen Assay (non-transfected cells)
Format: cell-based
Conditions: HEK Agonist Activity section of Table 4 (parental HEK counterscreen)
pEC50: −log10 of the molar value.
Reported property: pEC50

1) O=C(CCCOc1ccc(Cl)cc1Cl)NNC(=O)Cc1ccc2c(c1)OCCO2 :: < 4.85
2) Cc1ccc(SCC(=O)NNC(=O)c2cccs2)cc1 :: < 4.85
3) O=C(CCOc1ccccc1)NCC1COc2ccccc2O1 (centres unmarked) :: < 4.88
4) CC1CC(C)CN(C(=O)C2C3C=CC4(CN(Cc5ccccc5Cl)C(=O)C24)O3)C1 (centres unmarked) :: < 4.80
5) CC1(c2ccc3c(c2)OCO3)NC(=O)N(CC(=O)Nc2ccccc2[N+](=O)[O-])C1=O (centres unmarked) :: < 4.82
6) O=C(Cn1ncn2cccc2c1=O)NCCc1ccc(Cl)cc1 :: < 4.85
7) O=C(Nc1ccc(-c2cn[nH]c2)cc1OCCN1CCCC1)C1COc2ccc(F)cc2C1.O=C(O)C(F)(F)F.O=C(O)C(F)(F)F (centres unmarked) :: < 4.85
8) CCOC(=O)c1ccc(CSc2nnc(N)s2)cc1 :: < 4.85

====

Tested on: parental HEK cells
Assay: HEK parental Agonist Counterscreen Assay (non-transfected cells)
Format: cell-based
Conditions: HEK Agonist Activity section
Lab note: anything with Lipophilic Efficiency (logD) at or over 2 counts as yes (1); the rest go in no (0).

1) CC1=NNC(=O)C1CC(=O)N/N=C/c1c(Cl)cccc1Cl (centres unmarked) :: yes (1)
2) Cc1ccc(NC(=O)NNC(=O)COc2ccc(Cl)cc2)c(C)c1 :: no (0)
3) Cc1cccc(CNC(=O)Nc2ccc(-c3cn[nH]c3)cc2)c1.O=C(O)C(F)(F)F :: no (0)
4) CCn1c(=O)c([N+](=O)[O-])c(NCCc2ccc(OC)cc2)c2ccccc21 :: yes (1)
5) Cc1ccc(CNC(=O)COC(=O)c2ccc(Br)o2)cc1 :: yes (1)
6) Cc1cc(CC(=O)N/C=C/c2cccc3ccccc23)n[nH]1 :: yes (1)
7) Cc1onc(-c2ccccc2Cl)c1C(=O)N1CCC(Cn2ccnc2C)CC1 :: yes (1)
8) COc1cc(C(C)=O)ccc1OCC(=O)OCC(=O)NCCCc1ccccc1 :: yes (1)
9) CC1(c2ccc3c(c2)OCO3)NC(=O)N(CC(=O)Nc2ccccc2[N+](=O)[O-])C1=O (centres unmarked) :: yes (1)
10) O=C(NCCCn1ccnc1)c1cc2nc3c(c(C(F)(F)F)n2n1)CCc1ccccc1-3 :: no (0)
11) O=C(Nc1ccc(-c2c[nH]cn2)cc1)C1COc2ccc(F)cc2C1 (centres unmarked) :: no (0)
12) CN1CC[C@H](Oc2cc(-c3cn[nH]c3)ccc2NC(=O)N(Cc2ccccc2)C2CC2)C1.O=C(O)C(F)(F)F.O=C(O)C(F)(F)F :: yes (1)
13) CCCc1nn(CC(=O)NCc2nc3ccccc3n2C)c(=O)c2cc3ccsc3n12 :: yes (1)
14) COCCn1c(C)c(C(=O)NC(C)CCc2ccccc2)c2nc3ccccc3nc21 (centres unmarked) :: no (0)
15) COc1ccc(Cl)cc1C(=O)NNC(=O)CCc1ccc([N+](=O)[O-])cc1 :: yes (1)
16) O=C(Cn1cc2c(n1)CCCCC2)NCCCc1ccccc1 :: no (0)
17) CC(Oc1ccc(Cl)cc1Cl)C(=O)NNC(=O)COc1ccccc1 (centres unmarked) :: no (0)
18) CC1CCCCN1C(=O)CN1C(=O)C2(CCc3ccccc3C2)NC1=S (centres unmarked) :: yes (1)
19) Cc1ccc(C(=O)NNC(=O)CSc2nnc(Cn3cnc4ccccc43)o2)cc1 :: yes (1)
20) Cc1cccc(C(=O)NNC(=O)CCc2ccccc2)c1 :: no (0)
21) CSc1cccc(NC(=O)C2C3C=CC4(O3)C2C(=O)N(C(C)c2ccccc2)C4C(=O)NC2CCCCC2)c1 (centres unmarked) :: no (0)
22) O=C(Cn1ncc2c(Cl)cccc21)NCCc1ccc(Cl)cc1 :: no (0)
23) COc1ccccc1-c1nnc(NC(=O)Cc2ccc(C)cc2C)o1 :: no (0)
24) O=C(CN1CC(=O)N(Cc2ccc(O)cc2)C(c2ccccc2Cl)C1=O)NCc1ccco1 (centres unmarked) :: no (0)
25) O=C(Cn1nc(Cc2ccncc2)c2ccccc2c1=O)N1CCCc2ccccc21 :: no (0)
26) O=C(CCS(=O)(=O)c1cccc2nonc12)NCCc1ccc(Cl)cc1 :: yes (1)

====

Target: GPR139 (Homo sapiens)
Assay: GPR139 Antagonist titration assay (calcium detection, HEK-GPR139 cells, vs EC80 of S-JNJ-63533054)
pEC50: −log10 of the molar value.
Reported property: pEC50

1) CCCCCCOC(=S)SCC(=O)Nc1ccccc1 :: 5.57
2) CCCc1sc(N2CCN(C(=O)c3ccccc3)CC2)nc1-c1ccccc1 :: 5.06
3) COc1cc(C(=O)Nc2ccc(N3C(=O)c4ccc(Cl)cc4C3=O)c(C)c2)cc(OC)c1OC :: 5.68
4) Brc1ccc2[nH]cc(-c3nnc4ccc5ccccc5n34)c2c1 :: 4.99
5) COc1ccc(C(C(=O)NC(C)c2ccccc2)(c2ccccc2)c2ccccc2)cc1 (centres unmarked) :: 5.10

====

Target: GPR139 (Homo sapiens, UniProt Q6DWJ6)
Experiment: GPR139 Agonist titration / agonist counterscreen assay (calcium detection, HEK-GPR139 cells)
Type: cell-based
Parameters: expressed in transfected cells; host or cells: HEK Aequorin cells, Maxcyte transient transfection
Conditions: GPR139 Agonist Activity; based on logP
Reported property: Lipophilic Efficiency (logP)

1. COP(=O)(CN(CCc1ccc(Cl)cc1)C(=O)Nc1ccc(Cl)c(Cl)c1)OC :: 2.25
2. CN(Cc1cccs1)C(=O)CN1C(=O)NC(C)(c2ccc3c(c2)OCO3)C1=O (stereo not drawn) :: 7.01
3. O=C(CSc1ccc(Cl)cc1)Nc1nnc(-c2ccco2)o1 :: 4.59
4. Cc1ccc2c(CC(=O)NNC(=O)CC34CC5CC(CC(C5)C3)C4)coc2c1 :: 3.67
5. O=C(C1CC(Cc2cccc3ccccc23)=NO1)N1CCC(C(O)Cc2ccccc2)CC1 (stereo not drawn) :: 2.48
6. COc1ccccc1OCC(=O)NCCc1ccc2c(c1)CCCN2C :: 4.94

====

Biological target: GPR139 (Homo sapiens, UniProt Q6DWJ6)
Experiment: GPR139 Agonist titration / agonist counterscreen assay (calcium detection, HEK-GPR139 cells)
Type: cell-based
Design: expressed in transfected cells; host or cells: HEK Aequorin cells, Maxcyte transient transfection
Details: GPR139 Agonist Activity; ligand efficiency
The reader will find reported Efficiency Ligand values listed item by item below.
Reported property: Efficiency Ligand

1) COc1ccc(CCNC(=O)c2ccnc(N3CCN(Cc4ccc5c(c4)OCO5)CC3)c2)cc1 :: 0.28
2) COc1ccc(C2(C)NC(=O)N(CC(=O)NC3CCCC3)C2=O)cc1 (stereo not drawn) :: 0.43
3) Cc1cccc(OCC(=O)NNC(=O)C(C)Oc2ccc(Cl)cc2Cl)c1 (stereo not drawn) :: 0.38
4) COc1ccc(NC(=O)Cn2ncc3c2-c2ccccc2OC3)cc1Cl :: 0.38
5) CC(NC(=O)Cn1ncc2c(Cl)cccc21)c1ccc2c(c1)OCCO2 (stereo not drawn) :: 0.41
6) COc1cc(C(C)=O)ccc1OCC(=O)NC(C)CCc1ccccc1 (stereo not drawn) :: 0.40
7) CN1CC[C@H](Oc2cc(-c3cn[nH]c3)ccc2NC(=O)N(Cc2ccccc2)C2CC2)C1.O=C(O)C(F)(F)F.O=C(O)C(F)(F)F :: 0.30
8) COCCn1c(C)c(C(=O)NC(C)CCc2ccccc2)c2nc3ccccc3nc21 (stereo not drawn) :: 0.33
9) O=C(CCC(=O)c1ccco1)NNC(=O)CN1CCCc2ccccc21 :: 0.40

Data provenance is patent US20250099420A1.
